Target system: UniProtKB P62993
Protocol description: Binding affinity to Grb2-SH2 domain (53 to 163 residues) (unknown origin) expressed in Escherichia coli assessed as association constant by ITC analysis
Square brackets hold non-standard residues; d marks the D form. Peptide text beside a SMILES is read from it. * marks the point of attachment. pY = N[C@@H](Cc1ccc(OP(=O)(O)O)cc1)C(=O)O; NHPhenethyl = c1ccc(CCN*)cc1; Ac6c = NC1(C(=O)O)CCCCC1; NHBn = c1ccc(CN*)cc1
# Ka values compiled below

Observe how each entry below is paired with its result.
Molecule	Result
CC(=O)N[C@@H](Cc1ccc(OP(=O)(O)O)cc1)C(=O)NC1(C(=O)N[C@@H](CC(N)=O)C(=O)NCCCC(C)C)CCCCC1	1.6 10^7/M
CC(=O)N[C@@H](Cc1ccc(OP(=O)(O)O)cc1)C(=O)NC1(C(=O)N[C@@H](CC(N)=O)C(=O)NCc2ccccc2)CCCCC1 (Ac-[pY]-[Ac6c]-Asn-NHBn)	1.2 10^7/M

Ka reading for CC(=O)N[C@@H](Cc1ccc(OP(=O)(O)O)cc1)C(=O)NC1(C(=O)N[C@@H](CC(N)=O)C(=O)NCCCCCc2ccccc2)CCCCC1 : 2.8 10^7/M

Entry CC(=O)N[C@@H](Cc1ccc(OP(=O)(O)O)cc1)C(=O)NC1(C(=O)N[C@@H](CC(N)=O)C(=O)NCCc2ccccc2)CCCCC1 (Ac-[pY]-[Ac6c]-Asn-NHPhenethyl) , Ka reported as 1.5 10^7/M

Record CC(=O)N[C@@H](Cc1ccc(OP(=O)(O)O)cc1)C(=O)NC1(C(=O)N[C@@H](CC(N)=O)C(=O)NCc2cn(C)c3ccccc23)CCCCC1 . Reported Ka: 1.1 10^7/M

Field Ka (entry CC(=O)N[C@@H](Cc1ccc(OP(=O)(O)O)cc1)C(=O)NC1(C(=O)N[C@@H](CC(N)=O)C(=O)NCCCC2CCCCC2)CCCCC1 ) reads 1.9 10^7/M

====

Target system: Growth factor receptor-bound protein 2 (Homo sapiens) (UniProt P62993)
Sequence (P62993 whole entry, looked up, the tested form may be a part): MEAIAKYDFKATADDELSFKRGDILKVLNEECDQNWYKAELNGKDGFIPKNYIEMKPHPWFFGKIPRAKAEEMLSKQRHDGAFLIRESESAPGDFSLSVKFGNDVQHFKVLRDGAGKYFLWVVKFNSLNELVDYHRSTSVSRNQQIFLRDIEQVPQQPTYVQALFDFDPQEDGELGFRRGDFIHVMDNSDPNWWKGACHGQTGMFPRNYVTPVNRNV
Protocol description: Binding affinity to Grb2-SH2 domain (53 to 163 residues) (unknown origin) expressed in Escherichia coli assessed as change in gibbs free energy by ITC analysis
Square brackets hold non-standard residues; d marks the D form. Peptide text beside a SMILES is read from it. * marks the point of attachment. pY = N[C@@H](Cc1ccc(OP(=O)(O)O)cc1)C(=O)O; Ac6c = NC1(C(=O)O)CCCCC1; NHBn = c1ccc(CN*)cc1
Recorded metric: deltaG (kcal/mol)

In [3]: df
Out[3]:
                                   molecule  readout_number
0  CC(=O)N[C@@H](Cc1ccc(OP(=O)(O)O)cc1)C(=O)NC1(C(=O)N[C@@H](CC(N)=O)C(=O)NCCCc2ccc(Cl)cc2)CCCCC1           -10.5
1  CC(=O)N[C@@H](Cc1ccc(OP(=O)(O)O)cc1)C(=O)NC1(C(=O)N[C@@H](CC(N)=O)C(=O)NCCCCc2ccccc2)CCCCC1            -9.8
2  CC(=O)N[C@@H](Cc1ccc(OP(=O)(O)O)cc1)C(=O)NC1(C(=O)N[C@@H](CC(N)=O)C(=O)NCCCCCc2ccccc2)CCCCC1           -10.2
3  CC(=O)N[C@@H](Cc1ccc(OP(=O)(O)O)cc1)C(=O)NC1(C(=O)N[C@@H](CC(N)=O)C(=O)NCc2ccccc2)CCCCC1 (Ac-[pY]-[Ac6c]-Asn-NHBn)            -9.6
4  CC(=O)N[C@@H](Cc1ccc(OP(=O)(O)O)cc1)C(=O)NC1(C(=O)N[C@@H](CC(N)=O)C(=O)NCCc2cn(C)c3ccccc23)CCCCC1           -10.1
5  CC(=O)N[C@@H](Cc1ccc(OP(=O)(O)O)cc1)C(=O)NC1(C(=O)N[C@@H](CC(N)=O)C(=O)NCCCc2cccc3ccccc23)CCCCC1           -10.6
